Values were extracted from patent US20050004126A1.

STUDY_SYSTEM: MMP-3CD (catalytic domain of stromelysin) (Homo sapiens)
Sequence (P08254 100-272 limits assumed): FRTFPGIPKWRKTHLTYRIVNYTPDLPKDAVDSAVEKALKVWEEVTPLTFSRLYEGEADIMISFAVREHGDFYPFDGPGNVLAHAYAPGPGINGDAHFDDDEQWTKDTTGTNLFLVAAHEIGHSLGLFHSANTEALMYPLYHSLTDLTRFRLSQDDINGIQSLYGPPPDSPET
METHOD_NOTES: Thiopeptolide hydrolysis assay, MMP-3
Format: biochemical
RUN_CONDITIONS: Table II; read-out: MMP03 IC50
PARAMETER: pIC50
Give bare numbers, as −log10 of the molar value.

Study these solved cases before continuing.
smiles_repr=COc1ccc(C(=O)NCc2ccc3c(c2)OCO3)cc1C(=O)NCc1ccc2c(c1)OCO2 parameter=pIC50 observed_value=4.30
smiles_repr=COc1ccc(COC(=O)c2cccc(C(=O)OCc3ccc(OC)cc3)c2)cc1 parameter=pIC50 observed_value=4.29
smiles_repr=COc1ccc(C(=O)NCc2ccc3nsnc3c2)cc1C(=O)NCc1ccc2nsnc2c1 parameter=pIC50 observed_value=4.68

Now let's try a different one.
Prompt: Which measured pIC50 value corresponds to CCOc1ccc(C(=O)NCc2ccc3c(c2)OCO3)cc1C(=O)NCc1ccc2c(c1)OCO2 ?
Response: 4.70

###

STUDY_SYSTEM: MMP-3CD (catalytic domain of stromelysin) (Homo sapiens)
METHOD_NOTES: Thiopeptolide hydrolysis assay, MMP-3;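 also: inhibition of thiopeptolide substrate (100 µM) cleavage by the MMP-3 catalytic domain, detected with DTNB at pH 6.0 with CaCl2, hydrolysis compared against runs lacking inhibitor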
Format: biochemical
RUN_CONDITIONS: Table II; read-out: MMP03 IC50
pIC50: −log10 of the molar value.
PARAMETER: pIC50

List the reported pIC50 of each compound below.
1. COc1ccc(CNC(=O)c2ccc(OC)c(C(=O)NCc3ccc(OC)cc3)c2)cc1
2. O=C(NCc1cccnc1)c1cccc(C(=O)NCc2ccc3c(c2)OCO3)c1
3. O=C(NCc1cccc(F)c1)c1cccc(C(=O)NCc2cccc(F)c2)c1
4. COc1ccc(C(=O)OCc2ccccc2)cc1C(=O)OCc1ccccc1
5. COc1cccc(CNC(=O)c2cccc(C(=O)OCc3ccc(C(=O)O)cc3)c2)c1
6. COc1cccc(CNC(=O)c2cccc(C(=O)NCc3ccc(C(=O)O)cc3)c2)c1
7. O=C(NCc1cccc(Cl)c1)c1cccc(C(=O)NCc2cccc(Cl)c2)c1

Response:
["< 4.00", "< 4.00", "< 4.00", "< 4.00", "< 4.00", "< 4.00", 4.70]

List the reported pIC50 of each compound below.
1. COc1ccc(C(=O)NCc2ccccc2)cc1C(=O)NCc1ccccc1 [N,N′-Dibenzyl-4-methoxy-isophthalamide]
2. Nc1cc(C(=O)OCc2ccccc2)cc(C(=O)OCc2ccccc2)c1

Response:
1: < 4.00; 2: 4.14

###

STUDY_SYSTEM: MMP-13CD (catalytic domain of collagenase 3) (Homo sapiens)
METHOD_NOTES: Thiopeptolide hydrolysis assay, MMP-13;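 also: inhibition of enzymatic thiopeptolide substrate cleavage (100 µM) in pH 6.0 MES buffer with CaCl2 and DTNB, comparing hydrolysis with versus without inhibitor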
RUN_CONDITIONS: MMP13 IC50 μM, Table IVb
PARAMETER: IC50 (µM)
One number for each entry, in µM.

smiles_repr=COc1ccc(CNC(=O)c2ccc3c(c2)c(=O)n(Cc2cccc(OC)c2)c(=O)n3C)cc1 observed_value=0.023
smiles_repr=COc1ccc(CNC(=O)c2cnc3c(c2)c(=O)n(Cc2ccc(F)cc2)c(=O)n3C)cc1 observed_value=0.032
smiles_repr=COc1ccc(CNC(=O)c2ccc3c(c2)c(=O)n(Cc2ccc(C(=O)OCCN(C)C)c(OC)c2)c(=O)n3C)cc1 observed_value=0.5

List the reported IC50 of each molecule below.
1. COc1cccc(CNC(=O)c2ccc3c(c2)c(=O)n(Cc2ccc(Cl)cc2)c(=O)n3C)c1
2. CCn1c(=O)n(Cc2ccc(C(=O)O)cc2)c(=O)c2cc(C(=O)NCc3ccc(OC)cc3)ccc21
3. COc1cccc(CNC(=O)c2ccc3c(c2)c(=O)n(Cc2cccc(F)c2)c(=O)n3C)c1
4. COc1ccc(CNC(=O)c2ccc3c(c2)c(=O)n(Cc2ccc(C4(C(=O)O)CC4)cc2)c(=O)n3C)cc1
5. COc1ccc(CNC(=O)c2ccc3c(c2)c(=O)n(Cc2ccc(S(=O)(=O)NCCN(C)C)cc2)c(=O)n3C)cc1
6. COCCn1c(=O)c2cc(C(=O)NCc3ccc(OC)cc3)ccc2n(C)c1=O
7. COc1ccc(CNC(=O)c2ccc3c(c2)c(=O)n(Cc2ccc(F)c(Cl)c2)c(=O)n3C)cc1
8. COC(=O)c1ccc(Cn2c(=O)c3cc(C(=O)NCc4cccc(OC)c4)ccc3n(C)c2=O)cc1

Response:
0.0043
0.003
0.021
0.0033
0.055
1.35
0.012
0.003
